Reported GI50 values for a set of compounds
tested on: RXF 631; test: NCI tumour cell line growth inhibition, 48 h
Active and inactive are the calls of the source. Rule as the data show it: active = GI50 up to about 1.1 µM and inactive = higher.

// solved cases for GI50 follow
> print(dat)
                                   compound  reported.metric               result
1  CN(C)CCC1(C2=CCCC2)CC/C(=C\c2ccccc2Cl)C1=O (stereo not drawn)             GI50   6.07 µM (inactive)
2  O=C(N/N=C(\c1nc2ccc(Cl)cc2nc1O)C(O)c1ccccc1Cl)c1ccncc1 (stereo not drawn)             GI50  > 100 µM (inactive)

# next compound below
Q: // returns reported GI50 for input NNC(=O)N/N=C(/CC1(O)C(=O)Nc2ccc(Br)cc21)c1ccccc1 (stereo not drawn)
A: 38.6 µM (inactive)

----------
system: LXFL 529; assay: NCI tumour cell line growth inhibition, 48 h
Calls of active or inactive are those of the source. Rule as the data show it: active = GI50 up to about 1.1 µM and inactive = higher.
Catalogue of GI50 readings, one per entry.

Answered examples (3):
compound	GI50
C=C[Si](C)(C)COC(=O)/C(C#N)=C/C=C/c1ccccc1	47.5 µM (inactive)
O=C(Nc1ccc([N+](=O)[O-])cc1[N+](=O)[O-])C(=O)C(C(=O)c1ccc(Cl)c(Cl)c1)C1OC(=O)c2ccccc21 (stereo not given)	17.1 µM (inactive)
NC1=NS(=O)(=O)Nc2nc(-c3ccc([N+](=O)[O-])o3)[nH]c21	12.7 µM (inactive)

Q: Look up GI50: COC(=O)C(=NNc1ccccc1[N+](=O)[O-])C(=O)OC
A: > 100 µM (inactive)

Q: Any idea what GI50 was measured for Cn1nc2ccc3nccc(NCCNCCCl)c3c2n1 ?
A: > 100 µM (inactive)

Q: Item under review: O=C(Nc1ccc(Cl)cc1Cl)c1c/c(=N\O)c2ccc(O)cc2o1 . Reported GI50?
A: > 100 µM (inactive)

Q: Reported GI50, compound COc1ccc(-c2c3ccccc3c(-c3ccc(OC)cc3)c3ccccc23)cc1 : ____
A: > 100 µM (inactive)

Q: Looking for the measured GI50 of O=C(N/N=C(\c1nc2ccc(Cl)cc2nc1O)C(O)c1ccccc1Cl)c1ccncc1 (stereo not given) , can you help?
A: > 100 µM (inactive)

Q: Item under review: CNC1=Nc2ccc(Cl)cc2C(c2ccccc2)=NN1C . Reported GI50?
A: > 100 µM (inactive)

----------
test system: NCI-H226; assay: NCI tumour cell line growth inhibition, 48 h
Calls of active or inactive are those of the source. Rule as the data show it: active = GI50 up to about 1.1 µM and inactive = higher.
reported.metric: GI50

Examples from the recorded data:
> print(dat)
                                   compound    target               result
1                 O=C1c2ccccc2-c2ccc(O)cc21  NCI-H226   26.3 µM (inactive)
2  CCOC(=O)[C@@]12CCC(C1=O)[C@](C)(O)C[C@@H]2c1ccccc1  NCI-H226  > 100 µM (inactive)
3  O=C(Cc1nc(-c2ccccc2)cc(=O)n1-c1ccccc1Cl)c1ccncc1  NCI-H226  > 100 µM (inactive)

Q: I would be grateful if you could share the reported GI50 for COc1ccc([N+]2=NC(c3ccc([N+](=O)[O-])cc3)=NN(c3ccccc3)C2)cc1 .
A: 52.4 µM (inactive)

Q: Which GI50 is reported for this compound? Oc1cc(-n2cccn2)c(O)cc1-n1cccn1
A: 62.5 µM (inactive)

Q: State the recorded GI50 for this entry: COc1cc2nc(-c3cccs3)[nH]c(=O)c2cc1OC
A: > 100 µM (inactive)

Q: GI50 lookup needed for Cc1ccc(S(=O)(=O)Nc2cccc(C)c2C)cc1 , thanks.
A: 56.4 µM (inactive)

Q: Which GI50 is reported for this compound? CC(C)=CC(=O)CC(=O)C(=O)Nc1ccc(C)c(C)c1
A: > 100 µM (inactive)

Q: // query GI50 value for entry C[N+]12c3ccccc3O[B-]1(c1ccccc1)Oc1ccccc12 (stereo not given)
A: 32.8 µM (inactive)

Q: Which GI50 is listed for CNC(=O)OCc1nc([S+](C)[O-])n(C)c1COC(=O)NC (stereo not given) ?
A: > 100 µM (inactive)
